This collection of values is drawn from the RNAGym collection of RNA variant scans (doi:10.1073/pnas.2313332121).

Task for the reader: assign each of the following variants its reported polymerase ribozyme fitness (log ratio).
B1: TPR t1 (parent)
chain: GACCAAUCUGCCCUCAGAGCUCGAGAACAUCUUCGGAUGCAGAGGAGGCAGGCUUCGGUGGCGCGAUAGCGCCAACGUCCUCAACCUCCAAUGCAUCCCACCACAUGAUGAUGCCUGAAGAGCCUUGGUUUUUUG

Variants of: B1
experiment: polymerase ribozyme fitness, log enrichment relative to wild type (log ratio); higher = more active; in vitro selection for triplet polymerase activity
// return a plain number; no unit text

Ask: Bench note: what polymerase ribozyme fitness (log ratio) did G35C C72U C114U show?
Reply: -6.13

Ask: Try this variant next: U78C G113A G135U
Reply: -2.01

Ask: Can you handle C12A C99U next?
Reply: -3.06

Ask: Param item: A46G G61A C80U C94U
Reply: -2.56

Ask: What would you report for C80A U112A ?
Reply: -2.64

Ask: Same for U54G G117A
Reply: -2

Ask: Another variant: C72G A103U
Reply: -5.45

Ask: Field entry: G120A C124A
Reply: 2.09

Ask: Please do the same for A27G C53U C72A C102U as well.
Reply: -3.85

Ask: Follow-up item: C40U C104U
Reply: -0.655

Ask: Next variant up: C12U C15G G39A C56A G120A
Reply: 0.312

Ask: Then this variant: C8G C20G G44U
Reply: -4.75

Ask: Entry C73U C80U please
Reply: -0.17

Ask: Another: C49U G51U
Reply: -5.95

Ask: Follow-up entry: C85G C115G U132A
Reply: -2.4

Ask: // query: A37C G69A
Reply: -3.26

Ask: Another variant to check: U55C C70A C97U U116A
Reply: -4.83

Ask: Entry G17A A18C C62G G120C please
Reply: -4.41

Ask: Another: C8A G61U G117U A119U C123U
Reply: -0.671

Ask: // repeat for C62U G120U and report
Reply: -0.189

Ask: Then this variant: C70U G71U
Reply: -0.437

Ask: Can you handle G57A C94U next?
Reply: -2.53

Ask: Same for C64A C80G A83U C99U A103C U125A
Reply: -7.56

Ask: Then this variant: U9G U21A
Reply: -0.191

Ask: Another: G17U C70U
Reply: -3.3

Ask: Here is the next variant: G42A U87C C89G A90G C115U
Reply: -5.47

Ask: Further, for A41G U55G A75G U87A A108G ?
Reply: -4.14
